pIC50: −log10 of the molar value.
As a worked illustration, we turn to pIC50 data collected for Type-1 angiotensin II receptor (Oryctolagus cuniculus).

{"columns": ["molecule", "target of assay", "pIC50"],
 "data": [
  ["CCCc1cc(Cn2c(CC)nc3c(C)cc(C)nc32)cc(CCC)c1OC(C(=O)O)c1ccc(CC)cc1 (stereo not given)", "Type-1 angiotensin II receptor (Oryctolagus cuniculus)", 7.72],
  ["CCCc1cc(Cn2c(CC)nc3c(C)cc(C)nc32)cc(CCC)c1OC(C(=O)O)c1cccc(C)c1 (stereo not given)", "Type-1 angiotensin II receptor (Oryctolagus cuniculus)", 9.13],
  ["CCCc1cc(Cn2c(CC)nc3c(C)cc(C)nc32)cc(CCC)c1OC(C(=O)O)c1cccc(Oc2ccccc2)c1 (stereo not given)", "Type-1 angiotensin II receptor (Oryctolagus cuniculus)", 9.33],
  ["CCCc1cc(Cn2c(CC)nc3c(C)cc(C)nc32)cc(CCC)c1OC(C(=O)O)c1ccc(Cl)cc1 (stereo not given)", "Type-1 angiotensin II receptor (Oryctolagus cuniculus)", 8.55],
  ["CCCc1cc(Cn2c(CC)nc3c(C)cc(C)nc32)cc(CCC)c1OC(C(=O)O)c1ccc(Oc2ccccc2)cc1 (stereo not given)", "Type-1 angiotensin II receptor (Oryctolagus cuniculus)", 8.28]
]}

Origin of values: ChEMBL document CHEMBL1127032
